These measurements were taken from patent US5036097A.

test system: gastric ulceration; assay: NSAID-induced gastric ulceration in rats (surface area of ulceration); assay type: in vivo, rat (male Sprague-Dawley); details: aspirin 200, diflunisal 125, naproxen 150, ibuprofen 230 mg/kg; oral gavage, 4 h
Examples of compounds with documented gastric ulceration caused by NSAID follow.
Provide only the numeric value, understood in cm^2.

>>> val("COc1ccc2cc([C@H](C)C(=O)O)ccc2c1")
0.370

Which gastric ulceration caused by NSAID is listed for CC(C)Cc1ccc(C(C)C(=O)O)cc1 (stereo not shown) ?
0.644

Recorded gastric ulceration caused by NSAID of O=C(O)c1cc(-c2ccc(F)cc2F)ccc1O , please.
0.597

Bench note: what gastric ulceration caused by NSAID did CC(=O)Oc1ccccc1C(=O)O show?
0.972

* * *

assay: bioavailability / distribution estimate; format: in vivo; conditions: brain; read-out: brain level as % of the plasma concentration
Quantity kind: Kp
Answer with a bare number; do not write a unit.

Given the molecule CC(C)(C)[N+]([O-])=Cc1ccccc1 [PBN, N-tert-Butyl-α-phenylnitrone] , what is its reported Kp?
0.8
